# assay-info: Cytotoxicity against human C8166 cells by MTT assay
# Type: cell-based
Threshold 30 µM: CC50 strictly smaller gives fulfilled, otherwise not fulfilled.

Prompt line: Does the reported CC50 of the following compound sit strictly below 30 µM? Cc1cc(S(N)(=O)=O)ccc1NC(=O)COc1ccc(Cl)cc1C(O)c1cccc(Cl)c1 (racemic)
Response line: not fulfilled

Prompt line: Does the reported CC50 of the following compound sit strictly below 30 µM? Cc1cc(S(N)(=O)=O)ccc1NC(=O)COc1ccc(Cl)cc1C(O)c1ccccc1 (racemic)
Response line: not fulfilled

Prompt line: Does the reported CC50 of the following compound sit strictly below 30 µM? Cc1cc(S(N)(=O)=O)ccc1NC(=O)COc1ccc(Cl)cc1C(O)c1cc(Cl)cc(Br)c1 (racemic)
Response line: fulfilled

Prompt line: Does the reported CC50 of the following compound sit strictly below 30 µM? Cc1cc(S(N)(=O)=O)ccc1NC(=O)COc1ccc(Cl)cc1C(O)c1cccc(F)c1 (racemic)
Response line: not fulfilled

Prompt line: Does the reported CC50 of the following compound sit strictly below 30 µM? Cc1cc(S(N)(=O)=O)ccc1NC(=O)COc1ccc(Cl)cc1C(O)c1cc(Cl)cc(C#N)c1 (racemic)
Response line: not fulfilled

Prompt line: Does the reported CC50 of the following compound sit strictly below 30 µM? Cc1cc(S(N)(=O)=O)ccc1NC(=O)COc1ccc(Cl)cc1C(O)c1ccc(Cl)cc1Cl (racemic)
Response line: not fulfilled

Prompt line: Does the reported CC50 of the following compound sit strictly below 30 µM? Cc1cc(S(N)(=O)=O)ccc1NC(=O)COc1ccc(Cl)cc1C(=O)c1cc(Cl)cc(C#N)c1
Response line: not fulfilled

Prompt line: Does the reported CC50 of the following compound sit strictly below 30 µM? Cc1cc(S(N)(=O)=O)ccc1NC(=O)COc1ccc(Cl)cc1C(O)c1cc(Cl)cc(Cl)c1 (racemic)
Response line: fulfilled

---

# assay-info: Selectivity index, ratio of CC50 for human C8166 cells to EC50 for wild type HIV1 3B
# Type: toxicity, cell-based
# condition-info: read-out: Ratio CC50/EC50
measured-attribute: selectivity ratio
No unit in the answer, only the number.

Prompt line: Sample Cc1cc(S(N)(=O)=O)ccc1NC(=O)COc1ccc(Cl)cc1C(O)c1cc(Cl)ccc1Cl (racemic) — what was its selectivity ratio?
Response line: 34.2

Prompt line: Sample Cc1cc(S(N)(=O)=O)ccc1NC(=O)COc1ccc(Cl)cc1C(O)c1cc(Cl)cc(Cl)c1 (racemic) — what was its selectivity ratio?
Response line: 12.4

Prompt line: Sample Cc1cc(S(N)(=O)=O)ccc1NC(=O)COc1ccc(Cl)cc1C(O)c1cccc(Cl)c1 (racemic) — what was its selectivity ratio?
Response line: 46.4

Prompt line: Sample Cc1cc(S(N)(=O)=O)ccc1NC(=O)COc1ccc(Cl)cc1C(O)c1ccccc1C (racemic) — what was its selectivity ratio?
Response line: 28

Prompt line: Sample Cc1ccc(C(O)c2cc(Cl)ccc2OCC(=O)Nc2ccc(S(N)(=O)=O)cc2C)cc1 (racemic) — what was its selectivity ratio?
Response line: 59.3

Prompt line: Sample Cc1cccc(C(O)c2cc(Cl)ccc2OCC(=O)Nc2ccc(S(N)(=O)=O)cc2C)c1 (racemic) — what was its selectivity ratio?
Response line: 69

Prompt line: Sample Cc1cc(S(N)(=O)=O)ccc1NC(=O)COc1ccc(Cl)cc1C(O)c1cc(Cl)cc(C#N)c1 (racemic) — what was its selectivity ratio?
Response line: 80.8

Prompt line: Sample Cc1cc(S(N)(=O)=O)ccc1NC(=O)COc1ccc(Cl)cc1C(O)c1ccc(Cl)cc1Cl (racemic) — what was its selectivity ratio?
Response line: 13.7

Prompt line: Sample Cc1cc(S(N)(=O)=O)ccc1NC(=O)COc1ccc(Cl)cc1C(O)c1cc(Cl)cc(Br)c1 (racemic) — what was its selectivity ratio?
Response line: 42.4

Prompt line: Sample Cc1cc(S(N)(=O)=O)ccc1NC(=O)COc1ccc(Cl)cc1C(O)c1ccccc1Cl (racemic) — what was its selectivity ratio?
Response line: 24.6

Prompt line: Sample Cc1ccc(C(O)c2cc(Cl)ccc2OCC(=O)Nc2ccc(S(N)(=O)=O)cc2C)c(C)c1 (racemic) — what was its selectivity ratio?
Response line: 6.18

Prompt line: Sample Cc1cc(S(N)(=O)=O)ccc1NC(=O)COc1ccc(Cl)cc1C(O)c1ccc(Cl)c(Cl)c1 (racemic) — what was its selectivity ratio?
Response line: 11.2

Prompt line: Sample Cc1cc(S(N)(=O)=O)ccc1NC(=O)COc1ccc(Cl)cc1C(O)c1cccc(F)c1 (racemic) — what was its selectivity ratio?
Response line: 78.5

---

Assignment: determine reported EC50 for the given molecules.
# System: Human immunodeficiency virus 1
# assay-info: Antiviral activity against wild type HIV1 3B infected in human C8166 cells assessed as inhibition of viral-induced cytopathogenicity after 3 days by syncytium formation assay
# Assay type: functional, organism-based
# condition-info: Human immunodeficiency virus 1, 3B, C8166, 72 h
Report as a plain number; the unit nM is understood.

Prompt line: Sample Cc1cc(S(N)(=O)=O)ccc1NC(=O)COc1ccc(Cl)cc1C(O)c1ccccc1Cl (racemic) — what was its EC50?
Response line: 1300

Prompt line: Sample Cc1ccc(C)c(C(O)c2cc(Cl)ccc2OCC(=O)Nc2ccc(S(N)(=O)=O)cc2C)c1 (racemic) — what was its EC50?
Response line: 810

Prompt line: Sample Cc1ccc(C(O)c2cc(Cl)ccc2OCC(=O)Nc2ccc(S(N)(=O)=O)cc2C)c(C)c1 (racemic) — what was its EC50?
Response line: 4270

Prompt line: Sample Cc1cc(S(N)(=O)=O)ccc1NC(=O)COc1ccc(Cl)cc1C(O)c1cc(Cl)cc(C#N)c1 (racemic) — what was its EC50?
Response line: 390

Prompt line: Sample Cc1cccc(C(O)c2cc(Cl)ccc2OCC(=O)Nc2ccc(S(N)(=O)=O)cc2C)c1 (racemic) — what was its EC50?
Response line: 480

Prompt line: Sample Cc1cc(S(N)(=O)=O)ccc1NC(=O)COc1ccc(Cl)cc1C(=O)c1cc(Cl)cc(C#N)c1 — what was its EC50?
Response line: 0.69

Prompt line: Sample Cc1ccc(C(O)c2cc(Cl)ccc2OCC(=O)Nc2ccc(S(N)(=O)=O)cc2C)cc1 (racemic) — what was its EC50?
Response line: 650

Prompt line: Sample Cc1cc(S(N)(=O)=O)ccc1NC(=O)COc1ccc(Cl)cc1C(O)c1cc(Cl)ccc1Cl (racemic) — what was its EC50?
Response line: 1060

Prompt line: Sample Cc1cc(S(N)(=O)=O)ccc1NC(=O)COc1ccc(Cl)cc1C(O)c1cccc(F)c1 (racemic) — what was its EC50?
Response line: 480

Prompt line: Sample Cc1cc(S(N)(=O)=O)ccc1NC(=O)COc1ccc(Cl)cc1C(O)c1cc(Cl)cc(Br)c1 (racemic) — what was its EC50?
Response line: 540

Prompt line: Sample Cc1cc(S(N)(=O)=O)ccc1NC(=O)COc1ccc(Cl)cc1C(O)c1cccc([N+](=O)[O-])c1 (racemic) — what was its EC50?
Response line: 120

Prompt line: Sample Cc1cc(S(N)(=O)=O)ccc1NC(=O)COc1ccc(Cl)cc1C(O)c1ccc(Cl)c(Cl)c1 (racemic) — what was its EC50?
Response line: 2150

Prompt line: Sample Cc1cc(S(N)(=O)=O)ccc1NC(=O)COc1ccc(Cl)cc1C(O)c1cccc(Cl)c1 (racemic) — what was its EC50?
Response line: 720

Prompt line: Sample Cc1cc(S(N)(=O)=O)ccc1NC(=O)COc1ccc(Cl)cc1C(O)c1cccc(C)c1C (racemic) — what was its EC50?
Response line: 9020

Prompt line: Sample Cc1cc(S(N)(=O)=O)ccc1NC(=O)COc1ccc(Cl)cc1C(O)c1cc(Cl)cc(Cl)c1 (racemic) — what was its EC50?
Response line: 1060

Prompt line: Sample Cc1cc(S(N)(=O)=O)ccc1NC(=O)COc1ccc(Cl)cc1C(O)c1ccc(Cl)cc1Cl (racemic) — what was its EC50?
Response line: 2920

Prompt line: Sample Cc1cc(S(N)(=O)=O)ccc1NC(=O)COc1ccc(Cl)cc1C(O)c1ccc2ccccc2c1 (racemic) — what was its EC50?
Response line: 1090

---

Assignment: determine reported pEC50 for the given compounds.
# System: Human immunodeficiency virus 1
# assay-info: Antiviral activity against […] HIV1 A17 harboring reverse transcriptase K103N and Y181C mutant infected in human C8166 cells assessed as inhibition of viral-induced cytopathogenicity after 3 days by syncytium formation assay
# Type: functional, organism-based
# condition-info: Human immunodeficiency virus 1, A17, C8166, 72 h
Field pEC50 (float): negative decimal logarithm of the concentration in molar.

Prompt line: Sample Cc1ccc(C)c(C(O)c2cc(Cl)ccc2OCC(=O)Nc2ccc(S(N)(=O)=O)cc2C)c1 (racemic) — what was its pEC50?
Response line: 4.84

Prompt line: Sample Cc1cccc(C(O)c2cc(Cl)ccc2OCC(=O)Nc2ccc(S(N)(=O)=O)cc2C)c1 (racemic) — what was its pEC50?
Response line: 5.01

Prompt line: Sample Cc1cc(S(N)(=O)=O)ccc1NC(=O)COc1ccc(Cl)cc1C(O)c1ccc(Cl)cc1Cl (racemic) — what was its pEC50?
Response line: 4.47

Prompt line: Sample Cc1cc(S(N)(=O)=O)ccc1NC(=O)COc1ccc(Cl)cc1C(O)c1cc(Cl)cc(Br)c1 (racemic) — what was its pEC50?
Response line: 5.11

Prompt line: Sample Cc1cc(S(N)(=O)=O)ccc1NC(=O)COc1ccc(Cl)cc1C(O)c1cccc(C)c1C (racemic) — what was its pEC50?
Response line: 3.66

Prompt line: Sample Cc1cc(S(N)(=O)=O)ccc1NC(=O)COc1ccc(Cl)cc1C(O)c1cc(Cl)cc(C#N)c1 (racemic) — what was its pEC50?
Response line: 5.16

Prompt line: Sample Cc1ccc(C(O)c2cc(Cl)ccc2OCC(=O)Nc2ccc(S(N)(=O)=O)cc2C)cc1 (racemic) — what was its pEC50?
Response line: 4.87

Prompt line: Sample Cc1cc(S(N)(=O)=O)ccc1NC(=O)COc1ccc(Cl)cc1C(=O)c1cc(Cl)cc(C#N)c1 — what was its pEC50?
Response line: 8.85
